Cited source for all entries: patent US12435087B2

# reported pIC50; entries follow
Biological target: DCN1 (DCUND1) protein PONY domain (Homo sapiens (Human), UniProt Q96GG9)
Sequence (Q96GG9 60-248): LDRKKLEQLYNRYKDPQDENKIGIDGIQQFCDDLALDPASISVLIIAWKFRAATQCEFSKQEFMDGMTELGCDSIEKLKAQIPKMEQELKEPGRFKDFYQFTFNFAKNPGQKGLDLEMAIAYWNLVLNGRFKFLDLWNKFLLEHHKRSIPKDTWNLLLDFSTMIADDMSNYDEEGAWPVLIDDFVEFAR
Experiment: TR-FRET assay (binding to DCN-1, displacement of FAM-labeled probe)
Settings: 24 hr after treatment with compound; read-out: TR FRET IC50 24 hr
pIC50: −log10 of the molar value.
readout type: pIC50

[[record]]
molecule = "CCN1C(=O)[C@@H](NC(=O)c2cccc(C(F)(F)F)c2)[C@H](c2ccccc2CNC(=O)/C=C/C(=O)OC)c2cnn(-c3ccccc3)c21 (racemic)"
endpoint_value = "5.52 to 6.00"

[[record]]
molecule = "C/C=C(\\CN1CCOCC1)C(=O)NCc1cccc([C@@H]2c3cnn(-c4ccccc4)c3N(CC)C(=O)[C@H]2NC(=O)c2ccn(C(F)(F)F)n2)c1"
endpoint_value = "≥ 6.70"

[[record]]
molecule = "C=C(CO)C(=O)NCc1cccc([C@H]2c3cnn(-c4ccccc4)c3N(CC)C(=O)[C@@H]2NC(=O)c2cccc(C(F)(F)F)c2)c1"
endpoint_value = "5.52 to 6.00"

[[record]]
molecule = "C=C(C(=O)NCc1cccc([C@@H]2c3cnn(-c4ccccc4)c3N(CC)C(=O)[C@H]2NC(=O)c2ccn(C(F)(F)F)n2)c1)C(C)N1CC2CC(C1)O2 (some centres unmarked)"
endpoint_value = "≥ 6.70"

[[record]]
molecule = "C=C(CN1CC2CCC(C1)O2)C(=O)NCc1cccc([C@@H]2c3cnn(-c4ccccc4)c3N(CC)C(=O)[C@H]2NC(=O)c2nccc(C(F)(F)F)n2)c1"
endpoint_value = "≥ 6.70"

[[record]]
molecule = "C=C(CN1CCN(C2COC2)CC1)C(=O)NCc1cccc([C@@H]2c3c(C)nn(-c4ccccc4)c3N(CC)C(=O)[C@H]2NC(=O)c2cccc(C(F)(F)F)c2)c1 [Compound I-353]"
endpoint_value = "≥ 6.70"

[[record]]
molecule = "C=C(CN1CCN(C2COC2)CC1)C(=O)NCc1cccc([C@@H]2c3cnn(-c4ccccc4)c3N(CC)C(=O)[C@H]2NC(=O)c2ccn(C(F)(F)F)n2)c1"
endpoint_value = "≥ 6.70"

[[record]]
molecule = "C=C(CN1CCN(C2COC2)CC1)C(=O)NCc1cccc([C@@H]2c3cnn(-c4ccccc4)c3N(CC)C(=O)[C@H]2NC(=O)c2nccc(C(F)(F)F)n2)n1 [Compound I-333]"
endpoint_value = "≥ 6.70"

[[record]]
molecule = "CCN1C(=O)[C@H](NC(=O)c2cccc(C(F)(F)F)c2)[C@@H](c2cccc(NC(=O)C3CCC3)c2)c2c(C)nn(-c3ccccc3)c21 (racemic)"
endpoint_value = "5.52 to 6.00"

[[record]]
molecule = "CCN1C(=O)[C@H](NC(=O)c2cccc(C(F)(F)F)c2)[C@@H](c2cccc(NC(=O)/C=C/CN(C)C)c2)c2c(CO)nn(-c3ccccc3)c21 (racemic)"
endpoint_value = "6.00 to 6.70"

[[record]]
molecule = "C/C=C/C(=O)Nc1cccc([C@H]2c3c(C)nn(-c4ccccc4)c3N(CC)C(=O)[C@H]2NC(=O)c2cccc(C(F)(F)F)c2)c1 (racemic)"
endpoint_value = "< 5.52"

[[record]]
molecule = "CCN1C(=O)[C@H](NC(=O)c2cccc(C(F)(F)F)c2)[C@@H](c2ccccc2NC(=O)C23CC2C3)c2cnn(-c3ccccc3)c21 (mixture of isomers)"
endpoint_value = "5.52 to 6.00"

[[record]]
molecule = "CCN1C(=O)C(NC(=O)c2cccc(C(F)(F)F)c2)[C@@H](c2cccc(NC(=O)C(Cl)Cl)c2)c2c(C)nn(-c3ccccc3)c21 (stereo in doubt)"
endpoint_value = "5.52 to 6.00"

[[record]]
molecule = "C=C(CN1CC2(CCOC2)C1)C(=O)NCc1cccc([C@@H]2c3cnn(-c4ccccc4)c3N(CC)C(=O)[C@H]2NC(=O)c2cccc(C(F)(F)F)c2)c1"
endpoint_value = "≥ 6.70"

